molecular target: Sodium channel protein type 9 subunit alpha (Rattus norvegicus, UniProt O08562); test: Inhibition of rat Nav1.7 assessed as reduction in peak inward current at -70 mV holding potential measured after 600 secs by manual patch clamp electrophysiology assay
Sequence (O08562 whole entry): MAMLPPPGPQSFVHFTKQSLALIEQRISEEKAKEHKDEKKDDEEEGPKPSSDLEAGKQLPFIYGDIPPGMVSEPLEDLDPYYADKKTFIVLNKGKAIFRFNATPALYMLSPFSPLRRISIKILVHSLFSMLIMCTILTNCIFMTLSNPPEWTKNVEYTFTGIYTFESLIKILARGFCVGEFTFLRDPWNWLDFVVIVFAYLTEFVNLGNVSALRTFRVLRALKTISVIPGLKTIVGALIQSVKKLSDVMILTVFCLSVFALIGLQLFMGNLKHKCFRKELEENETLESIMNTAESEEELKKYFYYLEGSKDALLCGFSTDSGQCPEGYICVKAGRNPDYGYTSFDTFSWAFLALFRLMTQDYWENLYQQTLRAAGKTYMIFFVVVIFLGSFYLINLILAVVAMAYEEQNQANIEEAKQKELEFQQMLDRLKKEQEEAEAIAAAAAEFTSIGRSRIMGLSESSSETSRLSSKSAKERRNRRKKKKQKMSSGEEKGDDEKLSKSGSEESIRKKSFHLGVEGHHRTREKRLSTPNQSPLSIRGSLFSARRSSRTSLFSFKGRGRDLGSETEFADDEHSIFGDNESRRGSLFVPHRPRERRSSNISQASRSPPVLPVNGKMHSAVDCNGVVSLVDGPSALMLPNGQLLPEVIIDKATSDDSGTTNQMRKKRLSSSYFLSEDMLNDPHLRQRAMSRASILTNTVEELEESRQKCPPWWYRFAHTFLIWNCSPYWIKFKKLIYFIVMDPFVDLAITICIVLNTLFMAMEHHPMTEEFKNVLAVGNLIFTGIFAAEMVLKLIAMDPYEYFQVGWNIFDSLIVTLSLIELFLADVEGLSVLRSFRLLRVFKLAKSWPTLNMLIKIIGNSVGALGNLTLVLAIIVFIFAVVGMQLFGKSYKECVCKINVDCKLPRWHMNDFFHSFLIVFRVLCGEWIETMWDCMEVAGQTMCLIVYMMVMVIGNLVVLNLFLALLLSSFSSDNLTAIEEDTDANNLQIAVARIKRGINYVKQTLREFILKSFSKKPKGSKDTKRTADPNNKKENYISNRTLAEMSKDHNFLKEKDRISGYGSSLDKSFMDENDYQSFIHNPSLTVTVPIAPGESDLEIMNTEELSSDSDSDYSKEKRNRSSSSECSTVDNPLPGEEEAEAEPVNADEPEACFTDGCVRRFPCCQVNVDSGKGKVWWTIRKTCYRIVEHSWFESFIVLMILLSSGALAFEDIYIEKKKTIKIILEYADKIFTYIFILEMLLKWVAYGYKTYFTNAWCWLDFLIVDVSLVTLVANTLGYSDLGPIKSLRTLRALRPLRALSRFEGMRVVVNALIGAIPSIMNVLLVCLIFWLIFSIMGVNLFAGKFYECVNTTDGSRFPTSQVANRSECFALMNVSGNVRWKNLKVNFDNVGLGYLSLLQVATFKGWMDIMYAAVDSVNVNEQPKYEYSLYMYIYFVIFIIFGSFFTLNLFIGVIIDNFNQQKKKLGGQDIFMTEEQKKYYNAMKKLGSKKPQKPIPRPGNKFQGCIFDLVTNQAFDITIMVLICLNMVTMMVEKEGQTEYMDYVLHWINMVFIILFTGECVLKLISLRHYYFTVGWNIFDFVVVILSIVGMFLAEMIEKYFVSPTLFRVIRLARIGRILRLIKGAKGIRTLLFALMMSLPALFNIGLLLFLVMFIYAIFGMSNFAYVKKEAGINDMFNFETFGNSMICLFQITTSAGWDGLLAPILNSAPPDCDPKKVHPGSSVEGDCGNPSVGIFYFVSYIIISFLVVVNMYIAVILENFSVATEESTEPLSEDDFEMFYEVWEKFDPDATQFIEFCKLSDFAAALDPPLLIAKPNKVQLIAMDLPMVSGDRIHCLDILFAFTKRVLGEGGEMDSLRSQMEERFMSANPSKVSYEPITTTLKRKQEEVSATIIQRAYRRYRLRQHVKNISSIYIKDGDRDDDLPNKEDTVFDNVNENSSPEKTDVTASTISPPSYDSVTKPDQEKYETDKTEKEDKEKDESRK
readout type: IC50 (nM)

- N[C@H]1CC[C@@H](CNc2cc(F)c(S(=O)(=O)Nc3nccs3)cc2Cl)CC1: 12.3

* * *

biological target: Sodium channel protein type 5 subunit alpha (Homo sapiens, UniProt Q14524); assay: Inhibition of recombinant human Nav1.5 expressed in HEK293 cells assessed as reduction in peak inward current at -50 mV holding potential measured after 600 secs by IonWorks Barracuda patch-clamp assay
Sequence (Q14524 whole entry): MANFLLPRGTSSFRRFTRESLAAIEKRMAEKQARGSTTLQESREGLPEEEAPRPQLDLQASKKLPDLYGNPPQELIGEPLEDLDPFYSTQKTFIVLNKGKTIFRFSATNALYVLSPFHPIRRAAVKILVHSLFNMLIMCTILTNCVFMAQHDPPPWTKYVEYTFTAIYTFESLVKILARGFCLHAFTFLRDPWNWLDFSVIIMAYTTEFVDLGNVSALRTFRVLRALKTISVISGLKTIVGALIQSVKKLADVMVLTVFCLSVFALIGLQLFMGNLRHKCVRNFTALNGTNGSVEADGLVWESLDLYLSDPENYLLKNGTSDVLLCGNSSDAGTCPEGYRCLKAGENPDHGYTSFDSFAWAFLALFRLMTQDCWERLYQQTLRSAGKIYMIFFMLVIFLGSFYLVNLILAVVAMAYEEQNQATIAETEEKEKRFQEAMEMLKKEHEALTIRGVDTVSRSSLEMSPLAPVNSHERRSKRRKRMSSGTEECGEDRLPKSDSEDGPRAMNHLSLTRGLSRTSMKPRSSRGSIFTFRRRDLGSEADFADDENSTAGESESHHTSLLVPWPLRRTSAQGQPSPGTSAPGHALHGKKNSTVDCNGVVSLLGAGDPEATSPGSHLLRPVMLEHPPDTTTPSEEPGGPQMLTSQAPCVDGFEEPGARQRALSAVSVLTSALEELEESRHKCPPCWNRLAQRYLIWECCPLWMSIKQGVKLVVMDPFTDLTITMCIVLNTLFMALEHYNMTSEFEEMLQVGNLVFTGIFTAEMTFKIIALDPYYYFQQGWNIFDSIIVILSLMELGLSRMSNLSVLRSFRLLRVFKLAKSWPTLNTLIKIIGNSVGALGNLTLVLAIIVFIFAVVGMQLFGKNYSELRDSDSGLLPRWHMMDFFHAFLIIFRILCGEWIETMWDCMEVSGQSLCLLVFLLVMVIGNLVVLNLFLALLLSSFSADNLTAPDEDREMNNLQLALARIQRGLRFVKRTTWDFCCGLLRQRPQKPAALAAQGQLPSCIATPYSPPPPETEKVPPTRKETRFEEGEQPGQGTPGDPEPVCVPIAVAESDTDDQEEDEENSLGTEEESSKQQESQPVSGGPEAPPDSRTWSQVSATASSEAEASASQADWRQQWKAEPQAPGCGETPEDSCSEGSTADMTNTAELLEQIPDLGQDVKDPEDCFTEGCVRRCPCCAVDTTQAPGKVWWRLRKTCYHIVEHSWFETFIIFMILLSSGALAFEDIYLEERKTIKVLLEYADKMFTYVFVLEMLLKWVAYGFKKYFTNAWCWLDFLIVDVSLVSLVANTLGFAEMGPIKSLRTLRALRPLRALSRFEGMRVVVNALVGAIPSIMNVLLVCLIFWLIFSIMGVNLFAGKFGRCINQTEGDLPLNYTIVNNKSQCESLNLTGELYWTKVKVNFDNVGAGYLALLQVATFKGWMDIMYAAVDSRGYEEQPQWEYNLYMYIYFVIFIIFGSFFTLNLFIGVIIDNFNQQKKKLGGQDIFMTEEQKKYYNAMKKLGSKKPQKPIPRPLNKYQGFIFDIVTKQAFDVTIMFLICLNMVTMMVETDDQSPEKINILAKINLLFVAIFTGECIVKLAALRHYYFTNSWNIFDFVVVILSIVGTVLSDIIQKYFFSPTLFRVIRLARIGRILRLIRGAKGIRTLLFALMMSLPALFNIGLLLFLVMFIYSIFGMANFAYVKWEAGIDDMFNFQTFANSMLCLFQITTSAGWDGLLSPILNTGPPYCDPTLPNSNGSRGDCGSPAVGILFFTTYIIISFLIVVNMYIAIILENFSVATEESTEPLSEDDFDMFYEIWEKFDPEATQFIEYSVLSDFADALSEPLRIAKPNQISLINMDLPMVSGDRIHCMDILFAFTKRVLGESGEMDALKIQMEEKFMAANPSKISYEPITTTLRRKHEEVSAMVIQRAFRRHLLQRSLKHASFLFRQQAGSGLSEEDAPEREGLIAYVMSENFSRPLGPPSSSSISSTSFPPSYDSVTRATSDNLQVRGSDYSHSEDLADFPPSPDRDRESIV
pIC50: −log10 of the molar value.
Here, each record is paired with measured pIC50 data.
readout type: pIC50

- N[C@H]1CC[C@@](CCOc2cc(F)c(S(=O)(=O)Nc3ncns3)cc2F)(c2ccccc2)CC1: < 4.52
- N[C@H]1CC[C@@H](CCNc2cc(F)c(S(=O)(=O)Nc3nccs3)cc2Cl)CC1: 5.31
- O=S(=O)(Nc1ncns1)c1cc(F)c(OCC[C@]2(c3ccccc3)CC[C@@H](NC3CC3)CC2)cc1F: < 4.52
- O=S(=O)(Nc1nccs1)c1cc(Cl)c(NCCC2CCNCC2)cc1F: < 4.52
- N[C@H]1CC[C@](CCOc2cc(F)c(S(=O)(=O)Nc3ncns3)cc2F)(c2ccccc2)CC1: < 4.52

* * *

molecular target: Cytochrome P450 3A4 (Homo sapiens); test: Inhibition of human CYP3A4 assessed as inhibition of dealkylation
Sequence (P08684 whole entry): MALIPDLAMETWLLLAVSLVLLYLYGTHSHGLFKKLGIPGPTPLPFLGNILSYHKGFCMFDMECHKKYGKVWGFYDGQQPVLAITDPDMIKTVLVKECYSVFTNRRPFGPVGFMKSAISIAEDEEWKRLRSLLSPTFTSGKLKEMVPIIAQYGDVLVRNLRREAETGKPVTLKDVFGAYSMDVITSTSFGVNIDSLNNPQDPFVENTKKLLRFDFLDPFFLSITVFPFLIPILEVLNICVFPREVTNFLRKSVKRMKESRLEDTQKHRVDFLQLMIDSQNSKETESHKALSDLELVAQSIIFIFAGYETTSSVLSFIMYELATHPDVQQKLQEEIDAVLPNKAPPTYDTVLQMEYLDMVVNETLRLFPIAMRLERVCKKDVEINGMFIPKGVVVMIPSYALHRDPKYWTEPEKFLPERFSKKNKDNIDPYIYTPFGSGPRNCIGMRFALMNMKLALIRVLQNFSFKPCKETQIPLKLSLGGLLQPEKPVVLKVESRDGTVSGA
pIC50: −log10 of the molar value.
Here, each record is paired with measured pIC50 data.
readout type: pIC50

• N[C@H]1CC[C@@H](CNc2cc(F)c(S(=O)(=O)Nc3ncns3)cc2Cl)CC1 = 5.64
• O=S(=O)(Nc1nccs1)c1cc(Cl)c(NC[C@H]2CCCNC2)cc1F = 4.70
• O=S(=O)(Nc1nccs1)c1cc(Cl)c(NCC2CNCCO2)cc1F (racemic) = 4.70
• N[C@H]1CC[C@](CCNc2cc(F)c(S(=O)(=O)Nc3nccs3)cc2Cl)(c2ccccc2)CC1 = 5.17

* * *

assay: Apparent permeability of the compound at pH 7.4 by PAMPA assay; assay type: physicochemical
Here, each record is paired with measured Papp data.
readout type: Papp (×10⁻⁶ cm/s)

- CN1C(C)(C)CC(Nc2cc(F)c(S(=O)(=O)Nc3nccs3)cc2Cl)CC1(C)C: 24.1
- O=S(=O)(Nc1nccs1)c1cc(Cl)c(NCC2(CN3CCCC3)CC2)cc1F: 94.9

* * *

test: Fraction unbound in CD-1 mouse plasma; assay type: ADME, cell-free
Here, each record is paired with measured fraction unbound data.
readout type: fraction unbound

- N[C@H]1CC[C@@H](CNc2cc(F)c(S(=O)(=O)Nc3nccs3)cc2Cl)CC1: 0.08
- CN1C(C)(C)CC(Nc2cc(F)c(S(=O)(=O)Nc3nccs3)cc2Cl)CC1(C)C: 0.23
- O=S(=O)(Nc1nccs1)c1cc(Cl)c(NCC2(CN3CCCC3)CC2)cc1F: 0.2

* * *

target: Sodium channel protein type 5 subunit alpha (Homo sapiens, UniProt Q14524); assay: Inhibition of recombinant human Nav1.5 expressed in HEK293 cells assessed as reduction in peak inward current at -50 mV holding potential measured after 600 secs by IonWorks Barracuda patch-clamp assay
pIC50: −log10 of the molar value.
Here, each record is paired with measured pIC50 data.
readout type: pIC50

- O=S(=O)(Nc1ncns1)c1cc(F)c(OCC[C@]2(c3ccccc3)CC[C@H](NC3CC3)CC2)cc1F: < 4.52
- CN[C@H]1CC[C@@](CCOc2cc(F)c(S(=O)(=O)Nc3ncns3)cc2F)(c2ccccc2)CC1: < 4.52
- N[C@H]1CC[C@@](CCOc2cc(F)c(S(=O)(=O)Nc3ncns3)cc2F)(c2ccc(Cl)cc2)CC1: < 4.52
- N[C@H]1CC[C@@](CCOc2cc(F)c(S(=O)(=O)Nc3ncns3)cc2Cl)(c2ccccc2)CC1: < 4.52
- CN1C(C)(C)CC(Nc2cc(F)c(S(=O)(=O)Nc3nccs3)cc2Cl)CC1(C)C: < 4.52
- CN1CCCC(CNc2cc(F)c(S(=O)(=O)Nc3nccs3)cc2Cl)C1 (racemic): < 4.52
- CC(=O)N1CCCC(CNc2cc(F)c(S(=O)(=O)Nc3nccs3)cc2Cl)C1 (racemic): < 4.52
- O=S(=O)(Nc1nccs1)c1cc(Cl)c(NCCC2CCNC2)cc1F (racemic): < 4.52
- N[C@H]1CC[C@@H](CNc2cc(F)c(S(=O)(=O)Nc3nccs3)cc2Cl)CC1: 5.72
- CN1CCC(CCNc2cc(F)c(S(=O)(=O)Nc3nccs3)cc2Cl)CC1: < 4.52
- O=S(=O)(Nc1nccs1)c1cc(Cl)c(NCC2CNC2)cc1F: < 4.52
- N[C@H]1CC[C@@H](CNc2cc(F)c(S(=O)(=O)Nc3ncns3)cc2Cl)CC1: 5.59
- C[C@]1(CCOc2cc(F)c(S(=O)(=O)Nc3ncns3)cc2F)CC[C@H](N)CC1: < 4.52
- N[C@H]1CC[C@H](CNc2cc(F)c(S(=O)(=O)Nc3nccs3)cc2Cl)CC1: < 4.52
- N[C@H]1CC[C@](CCNc2cc(F)c(S(=O)(=O)Nc3nccs3)cc2Cl)(c2ccccc2)CC1: < 4.52
- O=S(=O)(Nc1nccs1)c1cc(Cl)c(NCC2CNCCO2)cc1F (racemic): < 4.52
- N[C@H]1CC[C@](CCOc2cc(F)c(S(=O)(=O)Nc3ncns3)cc2F)(c2ccc(Cl)cc2)CC1: < 4.52
- O=S(=O)(Nc1nccs1)c1cc(Cl)c(NCC2(CN3CCCC3)CC2)cc1F: 5.29
- N[C@H]1CC[C@](CCOc2cc(F)c(S(=O)(=O)Nc3ncns3)cc2Cl)(c2ccccc2)CC1: < 4.52

Value source: ChEMBL document CHEMBL4007444
